System: Lefty1
Test Method Notes: Lefty1 binders on small-molecule microarrays, primary screen, biochemical, small-molecule microarray, 635/667 nm fluorescence (AID 1139)
Measurement Setup: small-molecule microarray binding, fluorescence 635/667; higher = more signal
Value Kind: composite z-score

- C=C(CCCC)C(=O)CC[C@@H](OC(C)=O)c1cccc(OCCO)c1: 0.932
- CC(C)[C@@H](OCc1ccccc1)[C@H](C)C=NO[C@H](C)c1cn([C@H](CO)Cc2ccccc2)nn1: 0.913
- COc1ccc(-c2nc3c(c4c2C[C@H](C)OC4)CN(CCC(C)C)CC3)cc1: 0.67
- COc1ccc(O[C@H]2C=C[C@@H](c3ccccc3)O[C@@H]2COC(=O)CCC(C)=NOC(C)CN2CCCCc3nc(C)c(C)cc32)cc1 (stereo partly drawn): -0.214
- C[C@H](c1ccccc1)N1C(=O)[C@H]2[C@H]3[C@H](O)[C@H](O)CC(=O)[C@@H]3CC[C@H]2C1=O: 0.515
- COc1ccc(OC[C@H]2Cc3c(-c4ccccc4)nc4c(c3CO2)CN(CCOc2ccccc2)CC4)cc1: 1.25
- CO[C@H]1O[C@H](CO)[C@@H](OC(=O)Nc2ccc(C#N)cc2)[C@H](OC(=O)c2cc3ccccc3[nH]2)[C@H]1OC(=O)c1cc2ccccc2[nH]1: 0.421
- CC[C@@H](c1ccccc1)n1c(=O)n2n(c1=O)[C@H]1[C@H](O)[C@@H]3O[C@@H]3C(=NOCC(C)C)[C@H]1CC2: 0.542
